src = the supplement of paper PMC11732987

Biological target: UniProt O00487
Sequence (O00487 whole entry, the tested form may be a part): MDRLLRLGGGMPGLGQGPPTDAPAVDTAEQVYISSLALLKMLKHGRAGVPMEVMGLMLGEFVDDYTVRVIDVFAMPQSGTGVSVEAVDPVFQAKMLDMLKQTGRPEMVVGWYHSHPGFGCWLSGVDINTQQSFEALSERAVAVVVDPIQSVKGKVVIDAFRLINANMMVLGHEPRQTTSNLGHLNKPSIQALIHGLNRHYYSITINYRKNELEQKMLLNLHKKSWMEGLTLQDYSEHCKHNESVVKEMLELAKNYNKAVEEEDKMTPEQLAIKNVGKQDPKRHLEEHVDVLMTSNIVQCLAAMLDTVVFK
Experiment: log2 ratio of Biotin-Ahx-Ub-VS probe labelling (fragment/DMSO); higher = less target engagement (more negative = stronger competition), active = hit call of the paper (q ≤ 0.05, log2 ratio ≤ -1)
Details: compound concentration: 200 uM; treatment time: 3 h
Would you please tag the item true when its log2 ratio of Biotin-Ahx-Ub-VS probe labelling is -0.1 or above, and false when it is below?

Reported log2 ratio of Biotin-Ahx-Ub-VS probe labelling reaches at least -0.1 for NC(=O)C1CCCCN1C(=O)CCl (stereo not drawn) ?
true

Reported log2 ratio of Biotin-Ahx-Ub-VS probe labelling reaches at least -0.1 for CC1(NC(=O)CCl)CCS(=O)(=O)C1 (stereo not drawn) ?
true

Reported log2 ratio of Biotin-Ahx-Ub-VS probe labelling reaches at least -0.1 for Cl.O=C(CCl)N1CCC(n2nc3ccccc3n2)CC1 ?
false

Reported log2 ratio of Biotin-Ahx-Ub-VS probe labelling reaches at least -0.1 for C[C@H]1CN(C(=O)CCl)CCN1C(=O)c1cnn(C)c1.Cl ?
false

Reported log2 ratio of Biotin-Ahx-Ub-VS probe labelling reaches at least -0.1 for COc1cc(Cl)c(C)cc1NC(=O)CCl ?
false

Reported log2 ratio of Biotin-Ahx-Ub-VS probe labelling reaches at least -0.1 for O=C(CCl)N[C@H]1CC[C@@H](CO)CC1 ?
false

Reported log2 ratio of Biotin-Ahx-Ub-VS probe labelling reaches at least -0.1 for O=C(CCl)N1CCN(c2nc3ccccc3o2)CC1 ?
true

Reported log2 ratio of Biotin-Ahx-Ub-VS probe labelling reaches at least -0.1 for Cl.O=C(CN1CCN(C(=O)CCl)CC1)Nc1ccc(F)cc1 ?
true

Reported log2 ratio of Biotin-Ahx-Ub-VS probe labelling reaches at least -0.1 for Cl.Cn1ncc2c1CC(NC(=O)CCl)CC2 (stereo not drawn) ?
true

Reported log2 ratio of Biotin-Ahx-Ub-VS probe labelling reaches at least -0.1 for CC(C)n1nccc1NC(=O)CCl ?
false

Reported log2 ratio of Biotin-Ahx-Ub-VS probe labelling reaches at least -0.1 for CC(NC(=O)CCl)c1noc(Cc2ccccc2)n1 (stereo not drawn) ?
false

Reported log2 ratio of Biotin-Ahx-Ub-VS probe labelling reaches at least -0.1 for Cc1ccc(N2CCC(NC(=O)CCl)C2=O)cc1 (stereo not drawn) ?
false

Reported log2 ratio of Biotin-Ahx-Ub-VS probe labelling reaches at least -0.1 for Cl.O=C(CCl)NCCc1ncc(F)cc1F ?
false

---

Biological target: USP36 (UniProt Q9P275)
Sequence (Q9P275 whole entry, the tested form may be a part): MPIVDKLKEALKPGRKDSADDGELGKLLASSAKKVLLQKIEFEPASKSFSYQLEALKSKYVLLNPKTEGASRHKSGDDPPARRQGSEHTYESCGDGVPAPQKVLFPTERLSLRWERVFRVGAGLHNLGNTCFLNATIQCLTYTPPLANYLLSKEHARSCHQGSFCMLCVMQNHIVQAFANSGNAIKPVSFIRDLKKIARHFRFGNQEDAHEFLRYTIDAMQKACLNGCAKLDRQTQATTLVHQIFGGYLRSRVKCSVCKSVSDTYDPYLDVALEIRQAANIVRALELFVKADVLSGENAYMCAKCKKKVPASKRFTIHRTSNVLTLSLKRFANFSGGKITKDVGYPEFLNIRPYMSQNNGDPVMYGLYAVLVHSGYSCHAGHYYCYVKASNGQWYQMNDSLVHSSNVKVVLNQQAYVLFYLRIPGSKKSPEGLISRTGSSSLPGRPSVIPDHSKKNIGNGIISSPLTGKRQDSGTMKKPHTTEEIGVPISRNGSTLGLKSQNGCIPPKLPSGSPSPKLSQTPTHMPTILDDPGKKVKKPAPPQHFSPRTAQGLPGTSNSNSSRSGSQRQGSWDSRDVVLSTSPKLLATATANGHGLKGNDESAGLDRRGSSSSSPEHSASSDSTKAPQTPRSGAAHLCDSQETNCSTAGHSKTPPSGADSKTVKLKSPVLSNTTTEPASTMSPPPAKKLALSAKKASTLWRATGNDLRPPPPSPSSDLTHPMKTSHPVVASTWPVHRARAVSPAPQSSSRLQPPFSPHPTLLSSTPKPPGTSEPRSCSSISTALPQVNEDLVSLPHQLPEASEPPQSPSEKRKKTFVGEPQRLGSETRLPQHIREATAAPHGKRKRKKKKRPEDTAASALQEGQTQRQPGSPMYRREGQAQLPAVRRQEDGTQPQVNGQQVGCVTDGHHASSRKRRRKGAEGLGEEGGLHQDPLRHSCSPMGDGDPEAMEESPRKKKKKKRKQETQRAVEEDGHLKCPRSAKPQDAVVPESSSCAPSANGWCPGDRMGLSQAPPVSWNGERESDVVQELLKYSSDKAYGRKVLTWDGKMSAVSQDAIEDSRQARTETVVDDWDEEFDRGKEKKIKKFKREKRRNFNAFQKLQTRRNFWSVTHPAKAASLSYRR
Assay: log2 ratio of Biotin-Ahx-Ub-VS probe labelling (fragment/DMSO); higher = less target engagement (more negative = stronger competition), active = hit call of the paper (q ≤ 0.05, log2 ratio ≤ -1)
Details: compound concentration: 200 uM; treatment time: 3 h
What log2 ratio of Biotin-Ahx-Ub-VS probe labelling was measured for each of the following?
Kindly provide the number alone.

Short answer please: log2 ratio of Biotin-Ahx-Ub-VS probe labelling, USP36 (UniProt Q9P275), entry O=C(CCl)N(C1=CCCCC1)C1CC1
-0.116

Short answer please: log2 ratio of Biotin-Ahx-Ub-VS probe labelling, USP36 (UniProt Q9P275), entry CC(NC(=O)CCl)c1ccc2[nH]ncc2c1 (stereo unspecified)
-0.00241

Short answer please: log2 ratio of Biotin-Ahx-Ub-VS probe labelling, USP36 (UniProt Q9P275), entry Cc1cccc2nc(CCNC(=O)CCl)cn12.Cl
-0.179

Short answer please: log2 ratio of Biotin-Ahx-Ub-VS probe labelling, USP36 (UniProt Q9P275), entry Cc1ccc2nnc(CNC(=O)CCl)n2c1
-0.0909

Short answer please: log2 ratio of Biotin-Ahx-Ub-VS probe labelling, USP36 (UniProt Q9P275), entry O=C(CCl)NCC(=O)N1CCCC1
-0.0373

Short answer please: log2 ratio of Biotin-Ahx-Ub-VS probe labelling, USP36 (UniProt Q9P275), entry Cc1ccc(N(C(=O)CCl)C2C=CS(=O)(=O)C2)cc1 (stereo unspecified)
-0.145

Short answer please: log2 ratio of Biotin-Ahx-Ub-VS probe labelling, USP36 (UniProt Q9P275), entry CCN(C(=O)CCl)C1CCCCC1
-0.191

Short answer please: log2 ratio of Biotin-Ahx-Ub-VS probe labelling, USP36 (UniProt Q9P275), entry O=C(CCl)N1CCC(c2noc3cc(F)ccc23)CC1
-0.165

Short answer please: log2 ratio of Biotin-Ahx-Ub-VS probe labelling, USP36 (UniProt Q9P275), entry CCC(NC(=O)CCl)c1ccc(Cl)cc1 (stereo unspecified)
-0.231

Short answer please: log2 ratio of Biotin-Ahx-Ub-VS probe labelling, USP36 (UniProt Q9P275), entry Cn1cc(CN(Cc2ccc(Cl)cc2)C(=O)CCl)cn1
0.253

Short answer please: log2 ratio of Biotin-Ahx-Ub-VS probe labelling, USP36 (UniProt Q9P275), entry Cc1cc(NC(=O)CCl)n(-c2ccccc2)n1
-0.0233

Short answer please: log2 ratio of Biotin-Ahx-Ub-VS probe labelling, USP36 (UniProt Q9P275), entry O=C(CCl)N1CCC[C@@H]1c1ccon1
-0.122

Short answer please: log2 ratio of Biotin-Ahx-Ub-VS probe labelling, USP36 (UniProt Q9P275), entry N#Cc1cnn(-c2ccccc2)c1NC(=O)CCl
-0.28

Short answer please: log2 ratio of Biotin-Ahx-Ub-VS probe labelling, USP36 (UniProt Q9P275), entry Cl.Cn1ncc2c1CC(NC(=O)CCl)CC2 (stereo unspecified)
-0.0622

Short answer please: log2 ratio of Biotin-Ahx-Ub-VS probe labelling, USP36 (UniProt Q9P275), entry Cl.O=C(CCl)N1CCN(Cc2ccccc2)CC1
0.0546

Short answer please: log2 ratio of Biotin-Ahx-Ub-VS probe labelling, USP36 (UniProt Q9P275), entry O=C(CCl)NCCc1ccc2c(c1)OCCO2
-0.0707

Short answer please: log2 ratio of Biotin-Ahx-Ub-VS probe labelling, USP36 (UniProt Q9P275), entry Cc1cccc(C)c1NC(=O)CCl
-0.33

Short answer please: log2 ratio of Biotin-Ahx-Ub-VS probe labelling, USP36 (UniProt Q9P275), entry O=C(CCl)N1CCOC2(CCC2)CC1
-0.163

Short answer please: log2 ratio of Biotin-Ahx-Ub-VS probe labelling, USP36 (UniProt Q9P275), entry O=C(CCl)NCC1(c2ccccc2)CC1
-0.0695

Short answer please: log2 ratio of Biotin-Ahx-Ub-VS probe labelling, USP36 (UniProt Q9P275), entry Cc1ccc(CN(CCO)C(=O)CCl)cc1
-0.00999

Short answer please: log2 ratio of Biotin-Ahx-Ub-VS probe labelling, USP36 (UniProt Q9P275), entry CS(=O)(=O)c1ccc(NC(=O)CCl)cc1
0.166
